Reported values of GI50 for individual entries
# Tested on: H929 human cancer cell lines
# TEST PROTOCOL: Cellular viability / proliferation (Cell TiterGlo, 72 h)
# Format: cell-based
# CONDITION NOTES: Homo sapiens, NCI-H929, 72 h, read-out: GI50 on cellular proliferation of H929 human cancer cell lines, H929 cells, 72 h, Cell TiterGlo, 10% FBS
# Procedure: Cellular Viability of Human Tumor Cell Lines To evaluate compound effect on cellular proliferation, cells were plated at 1,000 cells/well in 96-well tissue culture plates in a total volume of 90 μL medium supplemented with 10% FBS (Sigma, Saint Louis, Mo.). […] Luminescence is measured on a BioTek Cytation 3. Luminescence values are imported into a template in XLFit (Guildford, Surrey, UK) that uses a four-parameter fit to generate an IC50 value for each compound dilution series on the plate.

MOLECULAR STRING | GI50 / nM
Cc1cc(OCCCc2c3n(c4c(-c5c(C)nn(C)c5C)c(Cl)ccc24)[C@H](C)CN(c2cn(CCN4CCN(C)CC4)c4ccc(-c5ncccn5)cc24)C3=O)cc(C)c1Cl | 280
Cc1cc(OCCCc2c3n(c4c(-c5c(C)cc(O)cc5C)c(Cl)ccc24)[C@H](C)CN(c2cn(C)c4ccc(C(=O)O)cc24)C3=O)cc(C)c1Cl | 1200
Cc1cc(OCCCc2c3n(c4c(-c5c(C)nn(C)c5C)c(Cl)ccc24)[C@H](C)CN(c2cn(C)c4cc(C#N)ccc24)C3=O)cc(C)c1Cl | 3200
Cc1cc(OCCCc2c3n(c4c(-c5c(C)nn(C)c5C)c(Cl)ccc24)[C@H](C)CN(c2ccc(F)c4c(C(=O)O)cn(C)c24)C3=O)cc(C)c1Cl | 340
Cc1cc(OCCCc2c3n(c4c(-c5c(C)nn(C)c5C)c(Cl)ccc24)[C@H](C)CN(c2cccc4c(C(=O)O)cn(Cc5ccncc5)c24)C3=O)cc(C)c1Cl | 1700
COc1ccnc(-c2ccc3c(c2)c(N2C[C@@H](C)n4c(c(CCCOc5cc(C)c(Cl)c(C)c5)c5ccc(Cl)c(-c6c(C)nn(C)c6C)c54)C2=O)cn3C)n1 | 480
